Test system: diamondback moth (Plutella xylostella)
assayText: Insecticidal effect on diamondback moth (Test Example 1)
Type: in vivo
runConditions: diamondback moth; mortality judged by criterion of Test Example 1
Method: Insecticidal effect on diamondback moth (Plutella xylostella) Adult diamondback moths were released and allowed to oviposit on a Chinese cabbage seedling. […] After air-drying, it was allowed to stand in a room thermostated at 25° C. Six days after the immersion, the hatched insects were counted. The mortality was calculated according to the following equation and the insecticidal effect was judged according to the criterion shown below. The test was carried out with triplicate groups of 10 insects. […]

{"smilesCode": "CCNC(=O)c1c(I)cccc1C(=O)Nc1ccc(C(F)(F)C(F)(F)F)cc1C", "experimentalSystem": "diamondback moth (Plutella xylostella)", "Insecticidal effect, Test Example 1": "A (100)"}
{"smilesCode": "Cc1cc(C(F)(F)C(F)(F)F)ccc1NC(=O)c1ccc(Cl)cc1C(=O)NC(C)(C)C", "experimentalSystem": "diamondback moth (Plutella xylostella)", "Insecticidal effect, Test Example 1": "A (100)"}
{"smilesCode": "Cc1cc(C(F)(F)C(F)(F)F)ccc1NC(=O)c1ccccc1C(=O)N(C(C)C)C(C)C", "experimentalSystem": "diamondback moth (Plutella xylostella)", "Insecticidal effect, Test Example 1": "A (100)"}
{"smilesCode": "Cc1cc(C(F)(F)C(F)(F)F)ccc1NC(=O)c1cccc(I)c1C(=O)NC1CCCC1", "experimentalSystem": "diamondback moth (Plutella xylostella)", "Insecticidal effect, Test Example 1": "A (100)"}

###

Tested on: rice leafroller (Cnaphalocrocis medinalis)
assayText: Insecticidal effect on rice leafroller (Test Example 3)
Assay type: in vivo
runConditions: 500 ppm, rice lamina dip, third-instar larvae, four days after inoculation, 25° C., humidity 70%
measurementLabel: Insecticidal effect on rice leafroller (Test Example 3), judged grade

Below are worked cases with known answers.
{"compound": "CC(C)NC(=O)c1cccc(F)c1C(=O)Nc1ccc(C(F)(F)F)cc1Cl", "valueMeasured": "A (100)"}
{"compound": "Cc1cc(Oc2ccc(C(F)(F)F)cn2)ccc1NC(=O)c1c(F)cccc1C(=O)NC(C)C", "valueMeasured": "C (89-80)"}
{"compound": "Cc1ccc(NC(=O)c2cccc([N+](=O)[O-])c2C(=O)NC(C)C)c(C)c1", "valueMeasured": "A (100)"}
{"compound": "CC(C)NC(=O)c1cccc(F)c1C(=O)Nc1ccc(OC(F)(F)F)cc1Cl", "valueMeasured": "A (100)"}
{"compound": "Cc1cc(Br)ccc1NC(=O)c1cccc([S+](C)[O-])c1C(=O)NC(C)C (centres unmarked)", "valueMeasured": "A (100)"}

(Q) Consider the compound shown here: "Cc1cc(OCC(F)(F)C(F)F)ccc1NC(=O)c1c(I)cccc1C(=O)NC(C)C" What is its recorded Insecticidal effect on rice leafroller (Test Example 3), judged grade?
(A) C (89-80)

(Q) Consider the compound shown here: "Cc1cc(OC(F)F)ccc1NC(=O)c1ccc(F)cc1C(=O)NC(C)C" What is its recorded Insecticidal effect on rice leafroller (Test Example 3), judged grade?
(A) A (100)

###

System: rice leafroller (Cnaphalocrocis medinalis)
assayText: Insecticidal effect on rice leafroller (Test Example 3)
Assay type: in vivo
runConditions: 500 ppm, rice lamina dip, third-instar larvae, four days after inoculation, 25° C., humidity 70%
measurementLabel: Insecticidal effect on rice leafroller (Test Example 3), judged grade

Below are worked cases with known answers.
{"compound": "Cc1cc(C(F)(F)C(F)(F)C(F)(F)F)ccc1NC(=O)c1cc(F)ccc1C(=O)NC(C)C [compound 533]", "valueMeasured": "A (100)"}
{"compound": "Cc1cc(OC(F)(F)F)ccc1NC(=O)c1cccc(F)c1C(=O)NC(C)C [compound 510]", "valueMeasured": "A (100)"}
{"compound": "CC(C)NC(=O)c1c(F)cccc1C(=O)Nc1ccc(SC(F)(F)C(F)F)cc1 [compound 479]", "valueMeasured": "A (100)"}
{"compound": "CC(C)NC(=O)c1c(C(=O)Nc2ccc(Cl)cc2C(F)(F)F)cccc1[N+](=O)[O-] [compound 679]", "valueMeasured": "A (100)"}
{"compound": "CC(C)NC(=O)c1c(C(=O)Nc2ccc(OC(F)(F)C(F)OC(F)(F)C(F)(F)C(F)(F)F)cc2)cccc1[N+](=O)[O-] (centres unmarked) [compound 619]", "valueMeasured": "A (100)"}
{"compound": "CC(C)NC(=O)c1cccc([N+](=O)[O-])c1C(=O)Nc1ccc(C(F)(F)C(F)(F)C(F)(F)F)cc1Cl [compound 741]", "valueMeasured": "A (100)"}
{"compound": "Cc1cc(OC(F)F)ccc1NC(=O)c1cccc(C)c1C(=O)NC(C)C [compound 751]", "valueMeasured": "A (100)"}
{"compound": "CC(C)NC(=O)c1c(C(=O)Nc2ccc(C(F)(F)C(F)(F)C(F)(F)C(F)(F)F)cc2)cccc1[N+](=O)[O-] [compound 611]", "valueMeasured": "A (100)"}

(Q) Consider the compound shown here: CCC(C)NC(=O)c1c(C(=O)Nc2cc(Cl)ccc2C)cccc1[N+](=O)[O-] (centres unmarked) [compound 838] What is its recorded Insecticidal effect on rice leafroller (Test Example 3), judged grade?
(A) A (100)

(Q) Consider the compound shown here: Cc1cc(OC(F)F)ccc1NC(=O)c1cccc([S+](C)[O-])c1C(=O)NC(C)C (centres unmarked) [compound 791] What is its recorded Insecticidal effect on rice leafroller (Test Example 3), judged grade?
(A) A (100)

(Q) Consider the compound shown here: CC(C)NC(=O)c1c(F)cccc1C(=O)Nc1ccc(OC(F)(F)C(F)OC(F)(F)C(F)(F)C(F)(F)F)cc1 (centres unmarked) [compound 476] What is its recorded Insecticidal effect on rice leafroller (Test Example 3), judged grade?
(A) A (100)

(Q) Consider the compound shown here: Cc1ccc(Cl)cc1NC(=O)c1cccc(F)c1C(=O)NC(C)C [compound 491] What is its recorded Insecticidal effect on rice leafroller (Test Example 3), judged grade?
(A) A (100)

(Q) Consider the compound shown here: CC(C)NC(=O)c1c(C(=O)Nc2ccccc2Br)cccc1[N+](=O)[O-] [compound 589] What is its recorded Insecticidal effect on rice leafroller (Test Example 3), judged grade?
(A) A (100)

(Q) Consider the compound shown here: Cc1ccc(F)cc1NC(=O)c1cccc([N+](=O)[O-])c1C(=O)NCCF [compound 862] What is its recorded Insecticidal effect on rice leafroller (Test Example 3), judged grade?
(A) D (79-50)

(Q) Consider the compound shown here: Cc1c(NC(=O)c2cccc([N+](=O)[O-])c2C(=O)NC(C)C)cccc1C(F)(F)F [compound 681] What is its recorded Insecticidal effect on rice leafroller (Test Example 3), judged grade?
(A) A (100)
